target: SNAP-25 peptide comprising amino acids 134-197 of SEQ ID NO:5 (human); test: SPR (BIAcore 3000), peptide on CM5 chip, 1:1 fit
Each entry below carries its recorded kon.

BINDER | kon
α-SNAP-25 mouse monoclonal antibody 3C1A5 (antibody, V domains shown) VH: QVKLQESGAELVKPGASVKISCKASGYTFTDHSIHWVKQKPGQGLEWIGYLFPGNGNFEYNEKFKGKATLTADKSSSTVYMYLNSLTSEDSAVYFCKRMGYWGQGTTVTVSS VL: DVVMTQTPLTLSVTIGQPASISCKSSQSLLNTNGKTYLTWLIQRPGQSPQRLIYLVSKLDSGVPDRFSGSGSGTDFTLKISRVEAEDLGVYYCLQSSHFPFTFGSGTKLEIKR | 217000 M⁻¹ s⁻¹
α-SNAP-25 mouse monoclonal antibody 2C9B10 (antibody, V domains shown) VH: QVKLQESGAELVKPGASVKISCKASGYTFTDHSIHWVKQKPGQGLEWIGYLFPGNGNFEYNEKFKGKATLTADKSSSTAYMHLNSLTSEDSAVYFCKKMDYWGQGTTVTVSS VL: DIQMTQSPASLSASVGETVTITCRTTENIYSYFVWSQQRQGKSPQLRVYNAKSLAEGVPSSFNVSVSGTQFSLKINSLQPEDFGTYHCQHHYGTPYTFGGGTRLEIRR | 11500 M⁻¹ s⁻¹
α-SNAP-25 mouse monoclonal antibody 1D3B8 (antibody, V domains shown) VH: QVKLQESGAELVKPGASVKISCKASGYIFTDHALHWVRQKPEQGLEWIGYIFPGNGNIEYNEKFKGKATLTADKSSSTAYMQLNSLTSGDSAMYFCKKMDYWGQGTTVTVSS VL: DVLMTQTPLSLPVSLGDQASISCRSSQSIVHSNGNTYLEWYLQKPGQSPKLLIYKVSNRFSGVPDRFSGSGSGTDFTLKISRVEAEDLGVYYCFQGSHVPPTFGAGTKLELKR | 1.06e+06 M⁻¹ s⁻¹
